Each entry below lists one item and its recorded Binding Capacity value.
Tested on: monoclonal antibody MV-001
EXPERIMENT: In vitro binding assay (ELISA), parental antibody MV-001
Set-up: species or system C57/Bl6 mice
CONDITIONS_USED: peptide-BSA on ELISA plate; OD halfmax, dilution factor 1:X of parental AB MV-001

SUBSTANCE | Binding Capacity
THMEFRRC [p4745] | 3 (strong binding :>20000)
NELRHSTC [p4701] | 3 (strong binding :>20000)
NSSELRHC [p4752] | 3 (strong binding :>20000)
QSEFKHWC [p4738] | 3 (strong binding :>20000)
GEMRHQPC [p4702] | 3 (strong binding :>20000)
ELFKHHLC [p4714] | 3 (strong binding :>20000)
SEFKHC [p4801] | 3 (strong binding :>20000)
SQSYFKHC [p4755] | 3 (strong binding :>20000)
YEFRHAQC [p4748] | 3 (strong binding :>20000)
EELRHSVC [p4746] | 3 (strong binding :>20000)
CHEFRH [p4802] | 3 (strong binding :>20000)
EDWFFWHC [p4709] | 1 (weak binding :<4000)
QPNLFYHC [p4713] | 1 (weak binding :<4000)
SEFKHGC [p4381] | 3 (strong binding :>20000)
EFLRHTLC [p4722] | 3 (strong binding :>20000)
SEFSHSSC [p4712] | 3 (strong binding :>20000)
SNSEFRRC [p4743] | 3 (strong binding :>20000)
QELKRYYC [p4724] | 1 (weak binding :<4000)
TLHEFRHC [p4715] | 3 (strong binding :>20000)
QLFKHSPC [p4747] | 3 (strong binding :>20000)
LHIPFRHC [p4726] | 3 (strong binding :>20000)
SELRHSTC [p4744] | 3 (strong binding :>20000)
DEHPFRHC [p4730] | 3 (strong binding :>20000)
